Measured C0 values are reported for all entries that follow.
# Assay notes: Pharmacokinetic determination in rats (IV and PO, plasma, LCMS/MS)
# Type: in vivo, SD rats
# Condition label: rat, in vivo; IV, 1 mg/kg, male SD rats, overnight fasting, plasma; read-out: C0
# Protocol: SD rats were used as test animals to study the pharmacokinetic behavior of the example compounds in rats (plasma) after oral administration. The example compounds of the present invention, made in house. 3 SD rats per group, male. Shanghai Jiesijie Experimental Animal Co., Ltd., animal production license number (SCXK (Shanghai) 2013-0006 N0.311620400001794). Formulation of a drug for oral administration: 10% Captisol in 50 mM citrate buffer pH 5.0. […]
Answer with a number only, understood to be in µg/mL.

Below, each entry is followed by its recorded C0 result.
C#Cc1c(F)ccc2cc(O)cc(-c3nc4c5c(nc(OCC6(CN7CCC(=C(F)F)CC7)CC6)nc5c3F)N3C[C@H]5CC[C@H](N5)[C@H]3CO4)c12	1.77
C#Cc1c(F)ccc2cc(O)cc(-c3nc4c5c(nc(OCC6(CN7CCC(=CF)CC7)CC6)nc5c3F)N3C[C@H]5CC[C@H](N5)[C@H]3[C@H](C)O4)c12	2.12

# next molecule below
Request: Entry under review: [2H]C([2H])([2H])[C@@H]1Oc2nc(-c3cc(O)cc4ccc(F)c(C#C)c34)c(F)c3nc(OCC4(CN5CCC(=CF)CC5)CC4)nc(c23)N2C[C@H]3CC[C@H](N3)[C@@H]12 . Reported C0?
Result: 0.838

----------
# Assay notes: Plasma stability test, dog plasma;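 note: parent compound left in dog plasma quantified by LC-MS with positive electrospray ionization, selected reaction monitoring and an internal standard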
# Assay type: in vitro ADME
# Condition label: Dog plasma, 37°C, 15 min
Measured Remaining rate (%) 15 min values are reported for all entries that follow.
Answer with a number only, understood to be in %.

Below, each entry is followed by its recorded Remaining rate (%) 15 min result.
[2H]C([2H])([2H])[C@@H]1Oc2nc(-c3cc(O)cc4ccc(F)c(C#C)c34)c(F)c3nc(OCC4(CN5CCC(=CF)CC5)CC4)nc(c23)N2C[C@H]3CC[C@H](N3)[C@@H]12 [Example 164]	92.40
C#Cc1c(F)ccc2cc(O)cc(-c3nc4c5c(nc(OCC6(CN7CCC(=C(F)F)CC7)CC6)nc5c3F)N3C[C@H]5CC[C@H](N5)[C@H]3[C@H](C)O4)c12 [Example 19-1]	95.89
[2H]C([2H])(Oc1nc2c3c(nc(-c4cc(O)cc5ccc(F)c(C#C)c45)c(F)c3n1)O[C@@H](C)[C@@H]1[C@@H]3CC[C@H](CN21)N3)C1(C([2H])([2H])N2CCC(=CF)CC2)CC1 [Example 291]	104.39
C#Cc1c(F)ccc2cc(O)cc(-c3nc4c5c(nc(OCC6(CN7CCC(=C(F)F)CC7)CC6)nc5c3F)N3C[C@H]5CC[C@H](N5)[C@H]3CO4)c12 [Example 1-1]	100.25

# next molecule below
Request: Entry under review: C#Cc1c(F)ccc2cc(O)cc(-c3nc4c5c(nc(OCC6(CN7CCC(=CF)CC7)CC6)nc5c3F)N3C[C@H]5CC[C@H](N5)[C@H]3[C@H](C)O4)c12 [Example 129] . Reported Remaining rate (%) 15 min?
Result: 100.48

----------
# System: GP2D
# Assay notes: Inhibition of proliferation of KRAS G12D mutant tumor cell line GP2D (CellTiter-Glo)
# Condition label: Homo sapiens, GP2d, 72 h, read-out: GP2D IC50
Endpoint label: pIC50
The scale used: pIC50 is minus the common logarithm of the concentration in molar units.

Below, each entry is followed by its recorded pIC50 result.
C#Cc1c(F)ccc2cc(O)cc(-c3nc4c5c(nc(OCC6(CN7CC8CC(=C(F)F)CC8C7)CC6)nc5c3F)N3C[C@H]5CC[C@H](N5)[C@H]3[C@H](C)O4)c12 (stereo partly shown) [Example 133]	9.28
C#Cc1c(F)ccc2cc(O)cc(-c3nc4c5c(nc(OCC6(CN7CCC(=CF)C7)CC6)nc5c3F)N3C[C@H]5CC[C@H](N5)[C@H]3[C@H](C)O4)c12 [Example 131]	9.77
[2H]C([2H])([2H])[C@@H]1Oc2nc(-c3cc(N)cc(Cl)c3C(F)(F)F)c(F)c3nc(OCC4(CN5CCC(=NOC)CC5)CC4)nc(c23)N2C[C@H]3CC[C@H](N3)[C@@H]12 [Example 339]	10.00
CON=C1CCN(CC2(COc3nc4c5c(nc(-c6cc(N)cc(Cl)c6C(F)(F)F)c(F)c5n3)O[C@@H](C)[C@@H]3[C@@H]5CC[C@H](CN43)N5)CC2)CC1 [Example 337]	9.96
C#Cc1c(F)ccc2cc(O)cc(-c3nc4c5c(nc(OCC6(CN7CCC(=CF)CC7)CC6)nc5c3F)N3C[C@H]5CC[C@H](N5)[C@H]3[C@H](C)O4)c12 [Example 129]	9.77

Request: Entry under review: C#Cc1c(F)ccc2cc(O)cc(-c3nc4c5c(nc(OCC6(CN7CC8CC(=C(F)F)CC8C7)CC6)nc5c3F)N3CC5CCC(N5)C3CO4)c12 (stereo not shown) [Example 17-1] . Reported pIC50?
Result: 8.92

Request: Entry under review: [2H]C([2H])(Oc1nc2c3c(nc(-c4cc(O)cc5ccc(F)c(C#C)c45)c(F)c3n1)O[C@@H](C)[C@@H]1[C@@H]3CC[C@H](CN21)N3)C1(C([2H])([2H])N2CCC(=C(F)F)C[C@H]2C)CC1 [Example 290] . Reported pIC50?
Result: 9.52

Request: Entry under review: [2H]C([2H])([2H])[C@@H]1Oc2nc(-c3cc(N)cc(Cl)c3C(F)(F)F)c(F)c3nc(OC([2H])([2H])C4(C([2H])([2H])N5CCC(=NOC)CC5)CC4)nc(c23)N2C[C@H]3CC[C@H](N3)[C@@H]12 [Example 341] . Reported pIC50?
Result: 10.00

Request: Entry under review: [2H]C([2H])(Oc1nc2c3c(nc(-c4cc(O)cc5ccc(F)c(C#C)c45)c(F)c3n1)O[C@@H](C)[C@@H]1[C@@H]3CC[C@H](CN21)N3)C1(C([2H])([2H])N2CCC(=CF)CC2)CC1 [Example 291] . Reported pIC50?
Result: 9.82

Request: Entry under review: C#Cc1c(F)ccc2cc(O)cc(-c3nc4c5c(nc(OCC6(CN7CCCC(=C(F)F)CC7)CC6)nc5c3F)N3C[C@H]5CC[C@H](N5)[C@H]3[C@H](C)O4)c12 [Example 132] . Reported pIC50?
Result: 9.62

----------
# Tested on: human colorectal cancer cell line (GP2D)
# Assay notes: Anti-tumor efficacy in mouse transplanted tumor model of human colorectal cancer cell line (GP2D)
# Format: in vivo, mice (BALB/c nude)
# Condition label: 100mpk, PO*BID, Day 14
# Text: 8-10 week old female conventional immunodeficient mice (BALB/c nude) with a body weight of 18 g-22 g were used as experimental animals, and a transplanted tumor model of human colorectal cancer cell line (GP2D) was used to conduct in vivo efficacy experiments to test the anti-tumor results of the example compounds after gavage administration. The example compounds of the present invention, made in house. […]
Endpoint label: TGI(%) Day 14
Quote the value and follow it with the unit of measurement.

Below, each entry is followed by its recorded TGI(%) Day 14 result.
C#Cc1c(F)ccc2cc(O)cc(-c3nc4c5c(nc(OCC6(CN7CCC(=CF)C7)CC6)nc5c3F)N3C[C@H]5CC[C@H](N5)[C@H]3[C@H](C)O4)c12	127.11%
C#Cc1c(F)ccc2cc(O)cc(-c3nc4c5c(nc(OCC6(CN7CCC(=CF)CC7)CC6)nc5c3F)N3C[C@H]5CC[C@H](N5)[C@H]3[C@H](C)O4)c12	153.01%
C#Cc1c(F)ccc2cc(O)cc(-c3nc4c5c(nc(OCC6(CN7CCC(=CF)CC7C)CC6)nc5c3F)N3CC5CCC(N5)C3C(C)O4)c12 (stereo not shown)	148.04%

# next compound below
Request: Provide the documented TGI(%) Day 14 with human colorectal cancer cell line (GP2D) as the system for [2H]C([2H])([2H])[C@@H]1Oc2nc(-c3cc(O)cc4ccc(F)c(C#C)c34)c(F)c3nc(OCC4(CN5CCC(=C(F)F)CC5)CC4)nc(c23)N2C[C@H]3CC[C@H](N3)[C@@H]12
Result: 153.75%

----------
# Assay notes: Plasma stability test, mouse plasma;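 note: test compound quantified by LC-MS using positive-mode electrospray ionization and MRM scanning, with an internal standard added in acetonitrile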
# Type: in vitro ADME
# Condition label: Mouse plasma, 37°C, 0 min
Measured Remaining rate (%) 0 min values are reported for all entries that follow.
Answer with a number only, understood to be in %.

[2H]C([2H])(Oc1nc2c3c(nc(-c4cc(O)cc5ccc(F)c(C#C)c45)c(F)c3n1)O[C@@H](C)[C@@H]1[C@@H]3CC[C@H](CN21)N3)C1(C([2H])([2H])N2CCC(=CF)CC2)CC1 [Example 291]	100.00
[2H]C([2H])([2H])[C@@H]1Oc2nc(-c3cc(O)cc4ccc(F)c(C#C)c34)c(F)c3nc(OCC4(CN5CCC(=CF)CC5)CC4)nc(c23)N2C[C@H]3CC[C@H](N3)[C@@H]12 [Example 164]	100.00
C#Cc1c(F)ccc2cc(O)cc(-c3nc4c5c(nc(OCC6(CN7CCC(=C(F)F)CC7)CC6)nc5c3F)N3C[C@H]5CC[C@H](N5)[C@H]3CO4)c12 [Example 1-1]	100.00
C#Cc1c(F)ccc2cc(O)cc(-c3nc4c5c(nc(OCC6(CN7CCC(=CF)CC7)CC6)nc5c3F)N3C[C@H]5CC[C@H](N5)[C@H]3[C@H](C)O4)c12 [Example 129]	100.00

# next compound below
Request: Entry under review: C#Cc1c(F)ccc2cc(O)cc(-c3nc4c5c(nc(OCC6(CN7CCC(=C(F)F)CC7)CC6)nc5c3F)N3C[C@H]5CC[C@H](N5)[C@H]3[C@H](C)O4)c12 [Example 19-1] . Reported Remaining rate (%) 0 min?
Result: 100.00
